# TARGET_DESC: Recombinant CatD (Homo sapiens (Human), UniProt P07339)
# Sequence (P07339 65-412): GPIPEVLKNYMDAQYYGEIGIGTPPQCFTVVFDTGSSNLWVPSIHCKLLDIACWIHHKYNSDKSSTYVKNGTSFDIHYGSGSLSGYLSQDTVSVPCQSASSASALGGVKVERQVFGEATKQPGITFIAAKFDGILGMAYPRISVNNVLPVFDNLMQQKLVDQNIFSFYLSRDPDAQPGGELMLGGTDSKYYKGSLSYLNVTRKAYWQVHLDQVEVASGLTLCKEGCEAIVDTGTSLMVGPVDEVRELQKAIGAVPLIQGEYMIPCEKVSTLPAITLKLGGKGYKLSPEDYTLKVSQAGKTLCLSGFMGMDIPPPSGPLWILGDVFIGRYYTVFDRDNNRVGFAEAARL
# TEST_DESCRIPTION: In vitro enzymatic Cathepsin D (CatD) FRET assay
# TEST_SETTINGS: read-out: Cat D Enzyme IC50
# Procedure: In Vitro Enzymatic Cathepsin D (CatD) FRET Assay Recombinant CatD was expressed in CHO cells. The assay buffer for CatD was 0.05 M citrate pH 3.5, 10% DMSO final, 5 mM CHAPS. […] The FRET assay was terminated with by addition of tris buffer, which raises the pH to neutrality, and the fluorescence was determined. […] Proteolytic cleavage of the FRET substrate released quenching of fluorescence (CatD excitation 500 nm and emission 580 nm). […]
pIC50: −log10 of the molar value.
EXPERIMENTAL_READOUT: pIC50

{"columns": ["MOLECULE", "TARGET_DESC", "pIC50"],
 "data": [
  ["N#Cc1ccc(/C(F)=C/c2ccc(F)c([C@@]34CO[C@@H](C(F)(F)F)[C@@H]3COC(N)=N4)c2)nc1 (racemic) [Example 141]", "Recombinant CatD (Homo sapiens (Human), UniProt P07339)", 3.63],
  ["C#CCOc1cnc(/C(F)=C/c2ccc(F)c([C@]34CN(C(=O)CC)C[C@H]3CSC(N)=N4)c2)cn1 [Example 122]", "Recombinant CatD (Homo sapiens (Human), UniProt P07339)", 4.06],
  ["C#CCOc1cnc(/C(F)=C/c2ccc(F)c([C@]34CN(C(=O)CC(F)(F)F)C[C@H]3CSC(N)=N4)c2)cn1 [Example 119]", "Recombinant CatD (Homo sapiens (Human), UniProt P07339)", 3.98],
  ["C#CCOc1cnc(/C(F)=C/c2ccc(F)c([C@]34CN(C(=O)OC(C)C)C[C@H]3CSC(N)=N4)c2)cn1 [Example 124]", "Recombinant CatD (Homo sapiens (Human), UniProt P07339)", 4.62],
  ["C#CCOc1cnc(/C(F)=C/c2ccc(F)c([C@]34CN(C(=O)OCC)C[C@H]3CSC(N)=N4)c2)cn1 [Example 123]", "Recombinant CatD (Homo sapiens (Human), UniProt P07339)", 4.44],
  ["N#Cc1cnc(/C(F)=C/c2ccc(F)c([C@]34CO[C@H](C(F)(F)F)[C@H]3CSC(N)=N4)c2)cn1 [Example 128]", "Recombinant CatD (Homo sapiens (Human), UniProt P07339)", 3.38]
]}

[A] N#Cc1ccc(/C(F)=C/c2ccc(F)c([C@@]34CN(c5ncc(F)cn5)C[C@@H]3CSC(N)=N4)c2)nc1 [Example 103]
[B] N#Cc1ccc(/C(F)=C/c2ccc(F)c([C@]34CN(c5ncc(F)cn5)C[C@H]3CSC(N)=N4)c2)nc1 [Example 102]
[C] C#CCOc1cnc(/C(F)=C/c2ccc(F)c([C@]34CN(c5ncccn5)C[C@H]3CSC(N)=N4)c2)cn1 [Example 120]
[D] C#C[C@H](C)Oc1cnc(/C(F)=C/c2ccc(F)c([C@]34CN(c5ncc(F)cn5)C[C@H]3CSC(N)=N4)c2)cn1 [Example 115]
Order by pIC50, ascending. # list labels per requested ordering A, B, D, C
(A: 3.61, B: 3.93, D: 4.72, C: 5.20)

---

# TARGET_DESC: Recombinant CatD (Homo sapiens (Human), UniProt P07339)
# TEST_DESCRIPTION: In vitro enzymatic Cathepsin D (CatD) FRET assay
# TEST_SETTINGS: read-out: Cat D Enzyme IC50
pIC50: −log10 of the molar value.
EXPERIMENTAL_READOUT: pIC50

{"columns": ["COMPOUND", "TARGET_DESC", "pIC50"],
 "data": [
  ["N#Cc1ccc(/C(F)=C/c2ccc(F)c([C@@]34CO[C@@H](C(F)(F)F)[C@@H]3CSC(N)=N4)c2)nc1 [Example 125]", "Recombinant CatD (Homo sapiens (Human), UniProt P07339)", 4.51],
  ["C#CCOc1cnc(/C(F)=C/c2ccc(F)c([C@]34CN(C(C)=O)C[C@H]3CSC(N)=N4)c2)cn1 [Example 118]", "Recombinant CatD (Homo sapiens (Human), UniProt P07339)", 3.90]
]}

[1] C#CCOc1cnc(/C(F)=C/c2ccc(F)c([C@]34CN(c5ncc(F)cn5)C[C@H]3CSC(N)=N4)c2)cn1 (stereo in doubt) [Example 109]
[2] N#Cc1ccc(/C(F)=C/c2ccc(F)c([C@@]34CO[C@@H](CF)[C@@H]3CSC(N)=N4)c2)nc1 [Example 133]
Between these two entries, 1 and 2 , state which has the higher pIC50. Identify your selection by its label. 1

---

# TARGET_DESC: human recombinant BACE1 (Homo sapiens (Human), UniProt P56817)
# Sequence (P56817 46-501): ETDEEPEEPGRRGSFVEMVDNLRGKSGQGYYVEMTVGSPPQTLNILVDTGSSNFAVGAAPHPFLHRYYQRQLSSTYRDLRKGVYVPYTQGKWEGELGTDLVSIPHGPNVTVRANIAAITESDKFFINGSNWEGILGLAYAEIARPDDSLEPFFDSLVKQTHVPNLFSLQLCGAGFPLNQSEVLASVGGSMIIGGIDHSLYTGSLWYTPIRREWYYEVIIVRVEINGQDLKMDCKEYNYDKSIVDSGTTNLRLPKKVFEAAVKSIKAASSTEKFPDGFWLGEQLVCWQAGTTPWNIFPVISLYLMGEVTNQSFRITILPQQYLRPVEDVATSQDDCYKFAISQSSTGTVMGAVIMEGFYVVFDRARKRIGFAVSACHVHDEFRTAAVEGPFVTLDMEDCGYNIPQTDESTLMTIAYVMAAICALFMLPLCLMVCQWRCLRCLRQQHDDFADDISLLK
# TEST_DESCRIPTION: In vitro enzymatic BACE1 FRET assay
# TEST_SETTINGS: read-out: BACE1 Enzyme IC50
pIC50: −log10 of the molar value.
EXPERIMENTAL_READOUT: pIC50

{"columns": ["COMPOUND_SMILES", "pIC50"],
 "data": [
  ["N#Cc1ccc(/C(F)=C/c2ccc(F)c([C@]34COC[C@H]3CSC(N)=N4)c2)nc1", 7.93],
  ["NC1=N[C@@]2(c3cc(/C=C(\\F)c4ncc(C(F)(F)F)cc4Cl)ccc3F)CO[C@H](C(F)(F)F)[C@H]2CS1", 7.82],
  ["COC[C@H](C)Oc1cnc(/C(F)=C/c2ccc(F)c([C@]34CN(c5ncc(F)cn5)C[C@H]3CSC(N)=N4)c2)cn1", 8.05],
  ["C#CCOc1cnc(/C(F)=C/c2ccc(F)c([C@]34CN(C(=O)CC(F)(F)F)C[C@H]3CSC(N)=N4)c2)cn1", 8.02],
  ["N#Cc1cnc(/C(F)=C/c2ccc(F)c([C@]34CO[C@H](C(F)(F)F)[C@H]3CSC(N)=N4)c2)cn1", 7.81]
]}

---

# TARGET_DESC: human recombinant BACE1 (Homo sapiens (Human))
# TEST_DESCRIPTION: In vitro enzymatic BACE1 FRET assay
# TEST_SETTINGS: read-out: BACE1 Enzyme IC50
# Protocol: In Vitro Enzymatic BACE1 and BACE2 FRET (Fluorescence Resonance Energy Transfer) Assays […] These recombinant proteins were further purified using Ni-NTA affinity chromatography (Qiagen). […] The FRET assay was terminated by the addition of tris buffer, which raised the pH to neutrality, and the fluorescence was determined. […] Proteolytic cleavage of the FRET substrate released quenching of fluorescence (excitation 488 nm and emission 590 nm).
pIC50: −log10 of the molar value.
EXPERIMENTAL_READOUT: pIC50

{"columns": ["COMPOUND", "pIC50"],
 "data": [
  ["NC1=N[C@@]2(c3cc(/C=C(\\F)c4cnc(OCC(F)(F)C(F)F)cn4)ccc3F)CN(c3ncc(F)cn3)C[C@H]2CS1", 6.97]
]}

[I] C#CCOc1cnc(/C(F)=C/c2ccc(F)c([C@]34CN(C(C)=O)C[C@H]3CSC(N)=N4)c2)cn1
[II] C#CCOc1cnc(/C(F)=C/c2ccc(F)c([C@]34CN(c5ncc(F)cn5)C[C@H]3CSC(N)=N4)c2)cn1 (stereo in doubt)
Return label of the item with the larger pIC50. Candidates: I , II . Returns: label corresponding to the selected item. II
(II: 9.83, I: 8.13)

---

# TARGET_DESC: human recombinant BACE2 (Homo sapiens (Human), UniProt Q9Y5Z0)
# Sequence (Q9Y5Z0 63-518): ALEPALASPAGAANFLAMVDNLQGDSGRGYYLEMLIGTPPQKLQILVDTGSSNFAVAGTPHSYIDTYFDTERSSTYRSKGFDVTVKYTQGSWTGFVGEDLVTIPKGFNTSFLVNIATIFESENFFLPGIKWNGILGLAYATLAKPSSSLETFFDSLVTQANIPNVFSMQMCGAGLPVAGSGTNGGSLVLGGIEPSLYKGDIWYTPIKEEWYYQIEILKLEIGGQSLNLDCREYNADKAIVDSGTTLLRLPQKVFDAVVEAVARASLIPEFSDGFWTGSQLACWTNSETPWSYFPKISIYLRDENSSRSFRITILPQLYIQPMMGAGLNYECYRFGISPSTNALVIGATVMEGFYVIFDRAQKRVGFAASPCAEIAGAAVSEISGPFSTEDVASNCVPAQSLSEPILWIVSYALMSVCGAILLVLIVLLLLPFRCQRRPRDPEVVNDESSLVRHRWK
# TEST_DESCRIPTION: In vitro enzymatic BACE2 FRET assay
# TEST_SETTINGS: read-out: BACE2 Enzyme IC50
pIC50: −log10 of the molar value.
EXPERIMENTAL_READOUT: pIC50

Use these answered entries as a reference point.
{"columns": ["COMPOUND", "EXPERIMENTAL_READOUT", "MEASURED_RESULT"],
 "data": [
  ["NC1=N[C@@]2(c3cc(/C=C(\\F)c4ccc(Cl)cn4)ccc3F)CN(c3ncc(F)cn3)C[C@H]2CS1 [Example 101]", "pIC50", 8.99],
  ["N#Cc1ccc(/C(F)=C/c2ccc(F)c([C@]34CO[C@H](CF)[C@H]3CSC(N)=N4)c2)nc1 [Example 131]", "pIC50", 6.37],
  ["N#Cc1ccc(/C(F)=C/c2ccc(F)c([C@@]34CO[C@@H](C(F)(F)F)[C@@H]3COC(N)=N4)c2)nc1 (single isomer, unassigned) [Example 143]", "pIC50", 3.86],
  ["Cc1cc(C#N)cnc1/C(F)=C/c1ccc(F)c([C@]23CO[C@H](C(F)(F)F)[C@H]2CSC(N)=N3)c1 [Example 138]", "pIC50", 5.94],
  ["N#Cc1ccc(/C(F)=C/c2ccc(F)c([C@@]34CO[C@@H](C(F)(F)F)[C@@H]3CSC(N)=N4)c2)nc1 [Example 125]", "pIC50", 4.74]
]}

[a] N#Cc1ccc(/C(F)=C/c2ccc(F)c([C@@]34CO[C@@H](C(F)(F)F)[C@@H]3COC(N)=N4)c2)nc1 (racemic) [Example 141]
[b] N#Cc1ccc(/C(F)=C/c2ccc(F)c([C@@]34CO[C@@H](C(F)F)[C@@H]3CSC(N)=N4)c2)nc1 [Example 145]
[c] N#Cc1ccc(/C(F)=C/c2ccc(F)c([C@]34CN(c5ncccn5)C[C@H]3CSC(N)=N4)c2)nc1 [Example 135]
[d] N#Cc1ccc(/C(F)=C/c2ccc(F)c([C@]34CN(c5ncc(F)cn5)C[C@H]3CSC(N)=N4)c2)nc1 [Example 102]
[e] N#Cc1ccc(/C(F)=C/c2ccc(F)c([C@@]34CO[C@@H](CF)[C@@H]3CSC(N)=N4)c2)nc1 [Example 133]
Please list the entries, largest pIC50 first. Provide the labels, sequenced as the question asks. d, c, b, a, e
(d: 8.51, c: 7.65, b: 5.85, a: 5.01, e: 4.55)

Hey, just so you know, these numbers are from patent US11548903B2.
